Every entry's value here was drawn from ChEMBL document CHEMBL3433997.

Tgt: Glucose transporter (Leishmania mexicana) (UniProt O61059)
Run description: ST_JUDE_LEISH: Cytotoxicity at 2uM final concentration against transgenic Leishmania Mexicana promastigotes LmGT2 that are glucose transport deficient and complemented with the L. Mexicana glucose transporter 2. Activity is measured by DNA content using SYBR green in vitro
Type: functional
Form field: inhibition (one value per entry).
I only need the number, in %, no unit after it.

Before answering, review these 5 worked examples.
CN(C)CCOc1ccc(-c2cc(-c3ccc(Cl)c(O)c3)c(-c3ccncc3)o2)cc1 | 4.9
Cc1cc(C(=O)OCC(N)=O)c(C)n1-c1ccc(F)cc1 | 3.07
COc1ccc(NC(=O)[C@H](CC(C)C)Nc2cc(C)nc(NCCc3cccs3)n2)cc1 | -1.58
CNCCCn1c(N(C)C)nc2cc(-n3cnc4cc(-c5ccc(Cl)cc5)sc4c3=O)ccc21 | 3.76
O=C(/C=C/c1ccc(Cl)c(Cl)c1)N1CCN(C(=O)Nc2ccc(F)c(Cl)c2)CC1 | 11.1

The molecule listed as CCc1c(C)nc(-n2nc(C)cc2NC(=O)C(CC)c2ccccc2)[nH]c1=O (configuration not stated) has a reported inhibition of -2.05

In plain terms, "COc1ccc(CNCc2ccc(-c3ccc(-c4nc5cc(C(F)(F)F)ccc5[nH]4)s3)cc2)cc1" has a documented inhibition of 2.4

For "CC(C)NCc1ccc(-c2cccc(NC(=O)c3cccc(C#N)c3)c2)cc1" the molecule record lists inhibition as -2.27

The reported inhibition of the molecule "COc1ccc2ncc(Cl)c(N3CCC(CCNCc4ccc5c(n4)NC(=O)CS5)CC3)c2c1" was 3.01

inhibition for "c1ccc2sc(-c3csc(Nc4ccncc4)n3)nc2c1" is 6.37

Looking up "O=C(NC1CCN(Cc2ccccc2)CC1)c1ccc(-c2nc3cc(Cl)c(Cl)cc3[nH]2)c(F)c1" , I found its inhibition recorded as 9.86

The measured inhibition associated with "c1cncc(CCNCc2ccc(-c3cccc(-c4nc5ccccc5[nH]4)c3)cc2)c1" reads -0.38

---

Tgt: Hexose transporter 1 (Plasmodium falciparum) (UniProt O97467)
Run description: ST_JUDE_LEISH: Cytotoxicity at 2uM final concentration against transgenic Leishmania Mexicana promastigotes LmPfHT that are glucose transport deficient and complemented with the Plasmodium falciparum hexose transporter. Activity is measured by DNA content using SYBR green in vitro
Assay type: functional
Readout type: inhibition (%)
Expressed in %, but write only the number.

Cc1sc2nc(CSc3ccccc3)nc(N3CCN(CC(=O)N4CCCC4)CC3)c2c1C | 5.88
CCC(C)NC(=O)Nc1ccc(-c2cccc(-c3nc4cc(C(F)(F)F)ccc4[nH]3)c2)cc1 (stereo not given) | 8.86
NC1=NC(c2ccccc2)N(c2ccc(Cl)c(Cl)c2)C(N)=N1 (stereo not given) | 7.89
Cc1cc2nc(-c3cc(-c4cccc(NS(C)(=O)=O)c4)cnc3N)[nH]c2cc1C | 0.27

Next compound, please.
Notebook: "Cc1nc(C)c(-c2ccc(Oc3ccc(Cl)c(Cl)c3)cc2)c(O)c1Br" , inhibition read as 0.11

---

Tgt: Glucose transporter (Leishmania mexicana) (UniProt O61059)
Run description: ST_JUDE_LEISH: Cytotoxicity at 2uM final concentration against transgenic Leishmania Mexicana promastigotes LmGT2 that are glucose transport deficient and complemented with the L. Mexicana glucose transporter 2. Activity is measured by DNA content using SYBR green in vitro
Type: functional
Recorded measurements of inhibition, one per entry
Give the number; % is assumed, so skip it.

Solved entries:
CS(=O)(=O)c1ccccc1CNC(=O)c1ccc(-c2ccc(-c3nc4cc(C(F)(F)F)ccc4[nH]3)s2)cc1 | 0.84
CNC(=O)C1Cc2c([nH]c3ccc(Br)cc23)C2(CCN(CCc3ccccc3)CC2)N1 (stereo unspecified) | 6.65
CCCc1ccc(Cc2cnc3nc(N)nc(N)c3c2C)cc1 | 40
CCOc1ccc2[nH]c(C)cc(=NN=Cc3cccc(C)n3)c2c1 | 2.54
CCCCCCCc1ccc(-c2c(C)[nH]c(C)c(Cl)c2=O)cn1 | 0.07
Cc1ccccc1CNC(=O)Nc1cccc(-c2csc(NC(=N)N)n2)c1 | 4.51
CCCCCCCNc1cc(C)nc2ccc(OC)cc12 | 12.4
O=c1cc(NCCCNCc2cccc(SC(F)(F)F)c2)[nH]c2ccccc12 | 3.15
CC(CO)(CO)NCc1cc2ccc3ccsc3c2c2ccccc12 | 48
c1ccc(COc2ccccc2COc2ccccc2-c2ccc3cccnc3n2)cc1 | 5.87

inhibition in this record for "O=C(Nc1cccc(-c2ccc(-c3nc4ccccc4[nH]3)cc2)c1)c1ccncc1" : 2.5

Briefly, inhibition measured for CCCC(CC)n1ccc2c3c(N)nc(N)nc3ccc21 (stereo unspecified) : 57.8

Documented inhibition of "CNCCNCc1ccc(-c2ccc(-c3nc4ccccc4[nH]3)s2)cc1" : 3.75

---

Tgt: Glucose transporter (Leishmania mexicana) (UniProt O61059)
Run description: ST_JUDE_LEISH: Cytotoxicity at 2uM final concentration against transgenic Leishmania Mexicana promastigotes LmGT2 that are glucose transport deficient and complemented with the L. Mexicana glucose transporter 2. Activity is measured by DNA content using SYBR green in vitro
Format: functional
Readout type: inhibition

# example entries with known answers
COc1ccc(NC(=O)c2ccc(-c3cccc(OCc4ccccc4)c3)cc2)cc1N1CCN(C)CC1 | -0.95%
O=c1[nH]c2c(cc1CNC1CCCCC1)c(-c1ccc(F)cc1)nn2-c1ccccc1 | 0.4%
COc1ccc2nccc([C@@H](O)CN3CCC(NC(=O)/C=C/c4cccc(C)c4)CC3)c2c1 | 3.43%

// inhibition lookup, compound = "CN(C)Cc1ccc(O)c(-c2ccc(C(C)(C)C)cc2)n1" , result: 2.74%

Just so you know, measured inhibition for "CC(C)(C)c1ccc(CN2CCC(NC(=O)c3ccc(-c4cccc(Cl)c4)s3)CC2)cc1" came out at 7.09%

The value of inhibition measured for the compound "Cc1cc(=NN=Cc2ccc(Cl)cc2)c2cc(F)ccc2[nH]1" turned out to be -0.34%

---

Form field: inhibition (one value per entry).
Tgt: Solute carrier family 2, facilitated glucose transporter member 1 (Homo sapiens)
Run description: ST_JUDE_LEISH: Cytotoxicity at 2uM final concentration against transgenic Leishmania Mexicana promastigotes LmGLUT1 that are glucose transport deficient and complemented with the human glucose transporter GLUT1. Activity is measured by DNA content using SYBR green in vitro
Assay type: functional
Give the value, in units of %, as a plain number.

Use these answered entries as a reference point.
Cc1cc(Cl)ccc1OC(C)C(=O)N1CCc2ccccc21 (centres undefined) | -3.17
CCCC(=O)Nc1ccc(Cl)c(NC(=O)COc2cc(C)ccc2C(C)C)c1 | 9.77
CO/C(=C\C=C\c1cc2cc(Cl)c(Cl)cc2[nH]1)C(=O)NC1CC2CCCC(C1)N2C (centres undefined) | 1.7

Entry "Cc1ccoc1C(=O)Nc1cccc(-c2cccc(-c3nc4ccccc4[nH]3)c2)c1" ; inhibition = 12.3

---

Listing: inhibition of selected compounds
Tgt: Hexose transporter 1 (Plasmodium falciparum) (UniProt O97467)
Run description: ST_JUDE_LEISH: Cytotoxicity at 2uM final concentration against transgenic Leishmania Mexicana promastigotes LmPfHT that are glucose transport deficient and complemented with the Plasmodium falciparum hexose transporter. Activity is measured by DNA content using SYBR green in vitro
Assay type: functional
Form entry: value (%) — number only.

Cc1cnc(N2CCN(CC3CCN(C)CC3)CC2)nc1Oc1ccc(-n2ccnc2)cc1 | 3.96
CCOc1cccc(C(=O)Nc2cccc(CN3CCCN(Cc4cccc(O)c4)CC3)c2)c1 | 5.58
O=C(Nc1ccc(OC(F)(F)F)cc1)Nc1ccc([N+](=O)[O-])cc1 | 2.15
CC(C)COc1ccc(Cl)cc1Cc1nc(-c2nc3ccc(CN4CCCCC4)cc3[nH]2)co1 | 3.69

Form: item "CS(=O)(=O)c1cccc(-c2cnc(N)c3cc(-c4ccc(F)cc4)ccc23)c1" ; test system Hexose transporter 1 (Plasmodium falciparum) (UniProt O97467); inhibition: 1.64

---

Quick list: inhibition per entry.
Tgt: Glucose transporter (Leishmania mexicana)
Run description: ST_JUDE_LEISH: Cytotoxicity at 2uM final concentration against transgenic Leishmania Mexicana promastigotes LmGT2 that are glucose transport deficient and complemented with the L. Mexicana glucose transporter 2. Activity is measured by DNA content using SYBR green in vitro
Assay type: functional
Provide only the numeric value, understood in %.

Look over these answered cases.
CS(=O)(=O)Nc1ccc2[nH]cc(C3CCN(CC4CCC(NC(=O)/C=C/c5ccc(Cl)c(Cl)c5)CC4)CC3)c2n1 (stereo not given) | 0.21
CN(Cc1cccc(F)c1)C1CCCN(c2cc(NC(=O)c3ccccc3)ccn2)C1 (stereo not given) | 3.71
CO/C(=C\C=C\c1cc2cc(Cl)c(Cl)cc2[nH]1)C(=O)NCCCNC12CC3CC(CC(C3)C1)C2 | 0.89
OCC1CCN(Cc2ccc(-c3cccc(-c4nc5cc(F)ccc5[nH]4)c3)cc2)CC1 | -1.42

Summary for this compound, "CC(C)(C)c1ccc(NC(=O)c2ccc(CN3CCCN(CC4CCCCC4)CC3)cc2)cc1" : inhibition is 5.35

Quick note, inhibition for "CCN(CC)CCN(Cc1ccc(-c2ccc(C(F)(F)F)cc2)cc1)C(=O)Cn1cc(CCCCc2cccc(F)c2F)c(=O)c2ccccc21" landed at 10.4

In plain terms, "Cc1c(CNCCN2CCCCC2)c(C(=O)O)c(C)n1Cc1ccc(Cl)cc1" has a documented inhibition of 0.22

The compound listed as "CC1(C)NC(N)=NC(=N)N1OCc1ccc(-c2ccccc2)cc1" has a reported inhibition of 3.79

Query "c1ccc(CN2CCC(NCc3ccc(-c4cncc5ccccc45)cc3)CC2)cc1" yields inhibition of 3.84
